Test System: T1, human CD98, endogenously expressed on Molt-4 human acute lymphoblastic leukemia cells (human)
T1 chain: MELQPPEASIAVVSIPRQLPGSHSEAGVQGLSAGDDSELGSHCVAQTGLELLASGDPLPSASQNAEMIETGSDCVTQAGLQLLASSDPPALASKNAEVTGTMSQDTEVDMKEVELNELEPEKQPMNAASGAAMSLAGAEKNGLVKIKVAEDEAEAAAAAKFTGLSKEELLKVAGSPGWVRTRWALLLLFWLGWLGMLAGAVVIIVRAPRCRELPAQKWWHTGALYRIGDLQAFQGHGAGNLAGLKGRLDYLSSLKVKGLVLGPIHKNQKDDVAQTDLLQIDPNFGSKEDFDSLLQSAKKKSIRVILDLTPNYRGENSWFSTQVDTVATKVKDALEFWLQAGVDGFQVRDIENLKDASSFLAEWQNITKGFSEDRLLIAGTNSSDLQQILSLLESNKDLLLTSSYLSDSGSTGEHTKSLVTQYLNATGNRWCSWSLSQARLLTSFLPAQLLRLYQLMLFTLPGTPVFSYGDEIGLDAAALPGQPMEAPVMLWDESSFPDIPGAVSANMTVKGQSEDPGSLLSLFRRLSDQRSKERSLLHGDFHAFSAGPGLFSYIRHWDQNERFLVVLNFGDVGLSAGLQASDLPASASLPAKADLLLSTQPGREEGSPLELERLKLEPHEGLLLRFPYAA
Test Name: cell-based or functional assay
Measured Metric: % Cell Viability at 50 nM (%)
# unit: % | format: bare number

CD98 (CL-huAb110)-WD (antibody, human IgG1, kappa, L234A L235A, V domains shown, synthon WD on reduced interchain cysteines (sites not given)) VH: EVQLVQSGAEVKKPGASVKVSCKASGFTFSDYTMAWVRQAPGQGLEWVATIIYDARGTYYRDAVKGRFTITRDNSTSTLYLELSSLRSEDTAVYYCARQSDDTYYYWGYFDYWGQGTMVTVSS VL: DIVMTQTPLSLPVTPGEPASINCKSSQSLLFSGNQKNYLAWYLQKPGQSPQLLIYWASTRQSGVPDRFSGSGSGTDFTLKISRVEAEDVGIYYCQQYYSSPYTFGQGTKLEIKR : 10.7

Continue with the next binder.
### Prompt Give % Cell Viability at 50 nM for the following binder: CD98 (CL-huAb104)-AAA (antibody, human IgG1, kappa, L234A L235A, V domains shown, synthon AAA on reduced interchain cysteines (sites not given)) VH: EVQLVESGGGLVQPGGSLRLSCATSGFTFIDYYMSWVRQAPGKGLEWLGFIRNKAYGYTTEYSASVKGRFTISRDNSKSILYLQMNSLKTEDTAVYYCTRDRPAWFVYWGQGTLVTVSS VL: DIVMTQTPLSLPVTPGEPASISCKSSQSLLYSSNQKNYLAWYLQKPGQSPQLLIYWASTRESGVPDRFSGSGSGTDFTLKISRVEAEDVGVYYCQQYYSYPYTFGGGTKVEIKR
### Response 2.2
